tested on: MS2 coat protein; test: apparent KD of MS2 coat protein; designed switch direction (-1 OFF switch, 1 ON switch): -1; higher = weaker reporter binding; details: input ligand: none

BIOSEQUENCE	SUBJECT_OF_TEST	READING_UNIT	apparent KD of MS2 coat protein
UUGUUUUCCGCAGGAUAUGCUCCUCUAUUACUAGCAGAAGGGCGUUGAACAUGAGGAUCACCCAUGUAUGUAAUUGCUUAUUGC [JR_ExcNG1_Sub074] (Eterna round: R96, puzzle: Exclusion NG 1)	MS2 coat protein	µM	0.0244
GGUGAGCUAGGAUAUGCUUUGGGCCCGCAUUCCUUCGAUAAACUUGAGGAUCACCCAAGUAGAAGGAGCUUGCC [salish99_ex2_r4_031] (Eterna round: R97, puzzle: Exclusion 2)	MS2 coat protein	µM	0.017
GGAUUUCCUGAGGAUAUUGCAUCACCCGAUUUAUAAGAAGGCAGAACAUGAGGAUCACCCAUGUGGGUCUCCAG [Bingo-Bango-24] (Eterna round: R97, puzzle: Exclusion 6)	MS2 coat protein	µM	0.0179

----------
The entries below come with measured apparent KD of MS2 coat protein values attached.
tested on: MS2 coat protein; assay: apparent KD of MS2 coat protein; higher = weaker reporter binding; details: Eterna round: R107; input ligand: arginine 13.2 mM
REPORTED_ENDPOINT: apparent KD of MS2 coat protein (nM)

BIOSEQUENCE	REPORTED_ENDPOINT	EXPERIMENTAL_VALUE
UGAAAGUAGGGAAGGAGCGCUACAACAUGAGGAUCACCCAUGUUAUGAGGAUCACCCGUGUGGCAGGUAGGUCGCCCAAAACAUG [#13 Same State - Arginine B]	apparent KD of MS2 coat protein	40.6
CAAACAUGAGGAUCACCCAUGUAAUCAGAUACCAGUGACGAAAGUCACCCUUGGCAGCUGAGUACAUUAGUUCUAAGGUGUUUGA [EThA NP+V+V2 #6 +-Same Structure]	apparent KD of MS2 coat protein	32.7
GGUGGCGGGACUGAUACCAGCCACCACCGAUAGACCACAUGAGGAUCACCCAUGUUGGGUGGCCCUUGGCAGCAGUCUUGCGUCG [#1 Same State - Theophylline B Attempt #16 (HarryS)]	apparent KD of MS2 coat protein	35.9
CCUAUGACAUGAGGAUCACCCAUGUUGGAUACCAGCGCAUGAGGACGCCCUUGGCAGCCAAUGAACAUGAGGAUACAUGAGGAUC [Same State Theophylline A 4]	apparent KD of MS2 coat protein	30.2
AGCACUGUGACGGCCGCCACUACAUAAAUAGGGUGGUCAGGUUCAUUACAUGAGGAUCACCCAUGUAGGACCGGGUCUCAGUGCA [Omei Trp Exc B A v7]	apparent KD of MS2 coat protein	10

----------
tested on: MS2 coat protein; assay: apparent KD of MS2 coat protein; designed switch direction (-1 OFF switch, 1 ON switch): 1; higher = weaker reporter binding; conditions: input ligand: FMN 200 uM
REPORTED_ENDPOINT: apparent KD of MS2 coat protein (µM)

BIOSEQUENCE	EXPERIMENTAL_VALUE
UGUUUGUUGUGAGGAUAUACAUACACCUUACAUGAGGAUCACCCAUGUUGUAAUUUUGAUAGUUAGUAGAAGGCACUUGGUUAU [JR_SSNG2_Sub045] (Eterna round: R96, puzzle: Same State NG 2)	0.0352
CAUCUAUACGUAGGAUAUGUAGGAUAUGCCUACAUGAGGAUCACCCAUGUUCGCAUGGCAGAAGGACAGAAGGACGAACUACUU [pwkr ssNG2 2FMN + 1F5.6] (Eterna round: R96, puzzle: Same State NG 2)	0.0324
